Can you tell me FRET-melting values in K+ conditions at 2 μM ΔTm FtryBT for the items I'm about to list?
System: Trypanosoma 9 and 11 chromosomic sequence FTrypBT
Assay: FRET-melting, FTrypBT
Conditions: K+ condition, 2 μM compound, 0.2 μM oligonucleotide
Counter-ions that a name gives are not always drawn.
// return the numeric value with its unit appended

Please tell me: FRET-melting values in K+ conditions at 2 μM ΔTm FtryBT of CN(C)CCCNCc1ccc(-c2nc(Cl)nc3c2ncn3-c2ccccc2)cc1 [Compound 43B] , system Trypanosoma 9 and 11 chromosomic sequence FTrypBT? 2.7 °C

Cool, now CN1CCN(CCCNCc2ccc(-c3nc(-c4ccc(CNCCCN5CCN(C)CC5)cc4)c4sccc4n3)cc2)CC1 [Compound 30B, oxalate] 12.8 °C

Cool, now CN1CCN(CCCNCc2ccc(-c3nc(-c4ccc(CNCCCN5CCN(C)CC5)cc4)c4ccn(-c5ccccc5)c4n3)cc2)CC1 [Compound 2B, oxalate] 17.3 °C

Cool, now CN(C)CCCNCc1ccc(-c2nc(-c3ccc(CNCCCN(C)C)cc3)c3ccn(-c4ccccc4)c3n2)cc1 [Compound 1B, oxalate] 20.5 °C

Cool, now CN(C)CCCCNCc1ccc(-c2nc(-c3ccc(CNCCCCN(C)C)cc3)c3ncn(-c4ccccc4)c3n2)cc1 [Compound 40B] 30.3 °C

Cool, now CN(C)CCCCCNCc1ccc(-c2nc(-c3ccc(CNCCCCCN(C)C)cc3)c3cnn(-c4ccccc4)c3n2)cc1 [Compound 41B] 33.0 °C

Cool, now CN(C)CCCNCc1ccc(-c2nc(-c3ccc(CNCCCN(C)C)s3)nc3c2ccn3-c2ccccc2)cc1 [Compound 7B, oxalate] 10.5 °C

---

Tested on: Plasmodium falciparum 3D7
Assay: In vitro antiplasmodial activity, SYBR Green I, strain 3D7
Conditions: Plasmodium falciparum, 3D7, 48 h, read-out: IC50 Plasmodium falciparum 3D7, chloroquine-sensitive strain 3D7, 48-hour incubation
Where a name gives a salt, the structure may show the parent alone.
Value kind: IC50

Given CN(C)CCCNCc1ccc(-c2nc(-c3ccc(CNCCCN(C)C)cc3)c3ccn(-c4ccccc4)c3n2)cc1 [Compound 1B, oxalate] , state its recorded IC50. 2.22 µM

Cool, now CN1CCN(CCCNCc2ccc(-c3nc(Cl)nc4c3ccn4-c3ccccc3)cc2)CC1 [Compound 18B, oxalate] 0.68 µM

Cool, now COC(=O)C(N)CCCCNCc1ccc(-c2nc(-c3ccc(CNCCCCC(N)C(=O)OC)cc3)c3ccn(C)c3n2)cc1 (stereo not shown) [Compound 11B, oxalate] > 40 µM

Cool, now CN(C)CCCNCc1ccc(-c2nc(NCCCN(C)C)nc3sccc23)cc1 [Compound 28B] 0.03 µM

---

Can you tell me log10(IC50) for the items I'm about to list?
Test system: Plasmodium falciparum W2
Test: In vitro antiplasmodial activity, SYBR Green I, strain W2
Conditions: Plasmodium falciparum, W2, 48 h, read-out: IC50 Plasmodium falciparum W2, chloroquine-resistant strain W2, 48-hour incubation
Where a name gives a salt, the structure may show the parent alone.
Field: value | Transform: log10 | Quantity: IC50 | Unit: nM

Given CN(C)CCCNCc1ccc(-n2ccc3c(-c4ccccc4)nc(-c4ccccc4)nc32)cc1 [Compound 12B, oxalate] , state its recorded log10(IC50). 3.96

Cool, now CN(C)CCCNCc1ccc(-c2nc(-c3ccc(CNCCCN(C)C)cc3)c3ccn(C)c3n2)cc1 [Compound 8B, oxalate] 3.65

Cool, now CN(C)CCCNCc1ccc(-c2nc3c(c(-c4ccc(CNCCCN(C)C)cc4)n2)CCNC3)cc1 [Compound 25B] 3.35

Cool, now CN1CCN(CCCNCc2ccc(-n3ccc4c(-c5ccccc5)nc(Cl)nc43)cc2)CC1 [Compound 23B, oxalate] 3.96

Cool, now CN1CCN(CCCNCc2ccc(-c3nc(-c4ccc(CNCCCN5CCN(C)CC5)cc4)c4sccc4n3)cc2)CC1 [Compound 30B, oxalate] 1.48

Cool, now COC(=O)C(N)CCCCNCc1ccc(-c2nc(-c3ccc(CNCCCCC(N)C(=O)OC)cc3)c3ccn(C)c3n2)cc1 (stereo not shown) [Compound 11B, oxalate] 1.85

Cool, now CN(C)CCCNCc1ccc(-c2nc(Cl)nc3c2ncn3-c2ccccc2)cc1 [Compound 43B] 2.92

---

Assay: Cytotoxicity evaluation, MTT
Type: cell-based, human
Conditions: HepG2 cells (hepatocarcinoma-derived, ATCC HB-8065); human HepG2 cells, 72 hours, MTT
Where a name gives a salt, the structure may show the parent alone.
Value kind: IC50 at 72 h
// return the numeric value with its unit appended

Given CN1CCN(CCCNCc2ccc(-c3nc(-c4ccc(CNCCCN5CCN(C)CC5)cc4)c4ccsc4n3)cc2)CC1 [Compound 27B, oxalate] , state its recorded IC50 at 72 h. 11.2 µM

Cool, now CN1CCN(CCCNCc2ccc(-c3nc(-c4ccc(CNCCCN5CCN(C)CC5)cc4)c4sccc4n3)cc2)CC1 [Compound 30B, oxalate] 18.9 µM

Cool, now CN(C)CCCNCc1ccc(-c2nc(Cl)nc3c2ccn3-c2ccccc2)cc1 [Compound 17B, oxalate] 2.87 µM

---

Test system: human telomeric sequence F21T
Test: FRET-melting, F21T
Settings: K+ condition, 2 μM compound, 0.2 μM oligonucleotide
Counter-ions that a name gives are not always drawn.
Value kind: FRET-melting values in K+ conditions at 2 μM ΔTm F21T (°C)
Give just the number in °C; leave the unit off.

Given CN(C)CCCNCc1ccc(-c2nc(-c3ccc(CNCCCN(C)C)s3)nc3c2ccn3-c2ccccc2)cc1 [Compound 7B, oxalate] , state its recorded FRET-melting values in K+ conditions at 2 μM ΔTm F21T. 13.8

Cool, now CN(C)CCCNCc1ccc(-c2nc(Cl)nc3c2ccn3-c2ccccc2)s1 [Compound 19B, oxalate] 6.2

Cool, now CN(C)CCCNCc1ccc(-c2nc(Cl)nc3[nH]ccc23)cc1 [Compound 15B, oxalate] 0.3

Cool, now CN(C)CCCNCc1ccc(-c2nc(-c3ccc(CNCCCN(C)C)cc3)c3ccsc3n2)cc1 [Compound 26B] 14.1

---

System: Plasmodium falciparum W2
Experiment: In vitro antiplasmodial activity, SYBR Green I, strain W2
Details: Plasmodium falciparum, W2, 48 h, read-out: IC50 Plasmodium falciparum W2, chloroquine-resistant strain W2, 48-hour incubation
Counter-ions that a name gives are not always drawn.
Value kind: IC50 (µM)
Give just the number in µM; leave the unit off.

Given CN(C)CCCNCc1ccc(-n2ccc3c(-c4ccccc4)nc(Cl)nc32)cc1 [Compound 22B, oxalate] , state its recorded IC50. 0.73

Cool, now CN1CCN(CCCNCc2ccc(-c3nc(Cl)nc4c3ccn4-c3ccccc3)cc2)CC1 [Compound 18B, oxalate] 6.96

Cool, now CN1CCN(CCCNCc2ccc(-c3nc(-c4ccc(CNCCCN5CCN(C)CC5)cc4)c4ccn(C)c4n3)cc2)CC1 [Compound 9B, oxalate] 0.13

Cool, now CN(C)CCCNCc1ccc(-c2nc(-c3ccc(CNCCCN(C)C)cc3)c3ccsc3n2)cc1 [Compound 26B] 9.95

---

Can you tell me pIC50 for the items I'm about to list?
Test system: SARS-CoV-2
Assay: microbe, parasite or virus in culture
Type: cell-based
Settings: Severe acute respiratory syndrome coronavirus 2; A549 cells expressing human ACE2, 72 hours after infection, RT-PCR of the N-gene; read-out: IC50 RTqPCR SARS-CoV-2
Structures can show the parent of a compound that is named as a salt.
Scale: pIC50 equals -log10([C]), with [C] in mol/L.

Please tell me: pIC50 of CC(C)N(CCCCCNCc1ccc(-c2nc(-c3ccc(CNCCCCCN(C(C)C)C(C)C)cc3)c3ccn(-c4ccccc4)c3n2)cc1)C(C)C [Compound 34B, oxalate] , system SARS-CoV-2? 6.77

Cool, now CN(C)CCCNCc1ccc(-c2nc(-c3ccc(CNCCCN(C)C)cc3)c3ccn(-c4ccccc4)c3n2)cc1 [Compound 1B, oxalate] 6.48

Cool, now CN(C)CCCNCc1ccc(-c2nc(-c3ccc(CNCCCN(C)C)cc3)c3ccn(-c4ccc(CNCCCN(C)C)cc4)c3n2)cc1 [Compound 13B, oxalate] 6.77

Cool, now CN(C)CCCCCNCc1ccc(-c2nc(-c3ccccc3)c3ccn(-c4ccc(CNCCCCCN(C)C)cc4)c3n2)cc1 [Compound 35B, oxalate] 6.25

Cool, now CCN(CC)CCCCNCc1ccc(-c2nc(-c3ccc(CNCCCCN(CC)CC)cc3)c3ccn(-c4ccccc4)c3n2)cc1 [Compound 33B, oxalate] 6.26

---

Test system: Plasmodium falciparum 3D7
Assay: In vitro antiplasmodial activity, SYBR Green I, strain 3D7
Settings: Plasmodium falciparum, 3D7, 48 h, read-out: IC50 Plasmodium falciparum 3D7, chloroquine-sensitive strain 3D7, 48-hour incubation
Structures can show the parent of a compound that is named as a salt.
Value kind: log10(IC50) (log10 of the value in nM)
Field: value | Transform: log10 | Quantity: IC50 | Unit: nM

Given CN1CCN(CCCNCc2ccc(-c3nc(-c4ccc(CNCCCN5CCN(C)CC5)cc4)c4sccc4n3)cc2)CC1 [Compound 30B, oxalate] , state its recorded log10(IC50). 4.03

Cool, now CN(C)CCCNCc1ccc(-c2nc(-c3ccc(CNCCCN(C)C)s3)nc3c2ccn3-c2ccccc2)cc1 [Compound 7B, oxalate] 2.94

Cool, now CN(C)CCCCCNCc1ccc(-c2nc(-c3ccccc3)c3ccn(-c4ccc(CNCCCCCN(C)C)cc4)c3n2)cc1 [Compound 35B, oxalate] 3.83

Cool, now CN(C)CCCNCc1ccc(-c2nc(Cl)nc3[nH]ccc23)cc1 [Compound 15B, oxalate] 4.01

Cool, now CN(C)CCCNCc1ccc(-c2nc(Cl)nc3c2ncn3-c2ccccc2)cc1 [Compound 43B] 3.18

Cool, now CN(C)CCCNCc1ccc(-c2nc(-c3ccc(CNCCCN(C)C)cc3)c3ccn(C)c3n2)cc1 [Compound 8B, oxalate] 3.29

Cool, now COC(=O)C(CCCCNCc1ccc(-c2nc(-c3ccc(CNCCCCC(NC(=O)OC(C)(C)C)C(=O)OC)cc3)c3ccn(C)c3n2)cc1)NC(=O)OC(C)(C)C (stereo not shown) [Compound 10B] 2.79

Cool, now CN(C)CCCNCc1ccc(-c2nc3c(c(-c4ccc(CNCCCN(C)C)cc4)n2)CCN(C(=O)OC(C)(C)C)C3)cc1 [Compound 24B] 3.21

Cool, now CN1CCN(CCCNCc2ccc(-c3nc(-c4ccc(CNCCCN5CCN(C)CC5)cc4)c4ccn(C)c4n3)cc2)CC1 [Compound 9B, oxalate] 4.25

Cool, now CN1CCN(CCCNCc2ccc(-n3ccc4c(-c5ccccc5)nc(Cl)nc43)cc2)CC1 [Compound 23B, oxalate] 2.58

Cool, now CC(C)N(CCCCCNCc1ccc(-c2nc(-c3ccc(CNCCCCCN(C(C)C)C(C)C)cc3)c3ccn(-c4ccccc4)c3n2)cc1)C(C)C [Compound 34B, oxalate] 2.97

Cool, now CN(C)CCCNCc1cc(-c2nc(Cl)nc3c2ccn3-c2ccccc2)cs1 [Compound 20B, oxalate] 2.77

Cool, now CN(C)CCCNCc1ccc(-c2nc(Cl)nc3c2ccn3-c2ccccc2)cc1 [Compound 17B, oxalate] 3.00

Cool, now CN(C)CCCNCc1ccc(-n2ccc3c(-c4ccccc4)nc(-c4ccccc4)nc32)cc1 [Compound 12B, oxalate] 2.58

Cool, now CN(C)CCCNCc1ccc(-c2nc(-c3ccc(CNCCCN(C)C)cc3)c3cnn(-c4ccccc4)c3n2)cc1 [Compound 36B, oxalate] 3.40

Cool, now CCN(CC)CCCCNCc1ccc(-c2nc(-c3ccc(CNCCCCN(CC)CC)cc3)c3ccn(-c4ccccc4)c3n2)cc1 [Compound 33B, oxalate] 3.39

Cool, now CN(C)CCCNCc1ccc(-n2ccc3c(-c4ccccc4)nc(Cl)nc32)cc1 [Compound 22B, oxalate] 2.90

Cool, now CN(C)CCCNCc1ccc(-c2nc(-c3ccc(CNCCCN(C)C)s3)c3ccn(-c4ccccc4)c3n2)cc1 [Compound 6B, oxalate] 3.08

Cool, now CN(C)CCCNCc1ccc(-c2nc(-c3ccc(CNCCCN(C)C)cc3)c3ccn(-c4ccc(CNCCCN(C)C)cc4)c3n2)cc1 [Compound 13B, oxalate] 3.39

Cool, now CN1CCN(CCCNCc2ccc(-c3nc(Cl)nc4[nH]ccc34)cc2)CC1 [Compound 16B, oxalate] 4.02

Cool, now CN(C)CCCNCc1ccc(-c2nc(Cl)nc3c2ccn3-c2ccccc2)s1 [Compound 19B, oxalate] 3.29

Cool, now CN(C)CCCNCc1ccc(-c2nc(NCCCN(C)C)nc3ccsc23)cc1 [Compound 31B] 1.60

Cool, now CN(C)CCCNCc1ccc(-c2nc(-c3ccc(CNCCCN(C)C)cc3)c3ccsc3n2)cc1 [Compound 26B] 3.65

Cool, now CN(C)CCCNCc1ccc(-c2nc(-c3ccc(CNCCCN(C)C)cc3)c3sccc3n2)cc1 [Compound 29B] 3.14

Cool, now CN(C)CCCNCc1ccc(-c2cc(Cl)nc3c2ccn3-c2ccccc2)cc1 [Compound 47B, oxalate] 2.18

Cool, now CN1CCN(CCCNCc2ccc(-c3nc(-c4ccc(CNCCCN5CCN(C)CC5)cc4)c4ccsc4n3)cc2)CC1 [Compound 27B, oxalate] 3.29

Cool, now CN(C)CCCCNCc1ccc(-c2nc(-c3ccc(CNCCCCN(C)C)cc3)c3ncn(-c4ccccc4)c3n2)cc1 [Compound 40B] 3.68

Cool, now CN(C)CCCNCc1ccc(-c2nc3c(c(-c4ccc(CNCCCN(C)C)cc4)n2)CCNC3)cc1 [Compound 25B] 2.90
